# credit: patent US20230312721A1

# Assayed System: T1, 4Ig human B7-H3 (human, UniProt Q5ZPR3 29-466, limits assumed)
# T1 construct: Soluble analyte in SPR; also called 4Ig-B7H3; 4Ig B7H3
# T1 sequence: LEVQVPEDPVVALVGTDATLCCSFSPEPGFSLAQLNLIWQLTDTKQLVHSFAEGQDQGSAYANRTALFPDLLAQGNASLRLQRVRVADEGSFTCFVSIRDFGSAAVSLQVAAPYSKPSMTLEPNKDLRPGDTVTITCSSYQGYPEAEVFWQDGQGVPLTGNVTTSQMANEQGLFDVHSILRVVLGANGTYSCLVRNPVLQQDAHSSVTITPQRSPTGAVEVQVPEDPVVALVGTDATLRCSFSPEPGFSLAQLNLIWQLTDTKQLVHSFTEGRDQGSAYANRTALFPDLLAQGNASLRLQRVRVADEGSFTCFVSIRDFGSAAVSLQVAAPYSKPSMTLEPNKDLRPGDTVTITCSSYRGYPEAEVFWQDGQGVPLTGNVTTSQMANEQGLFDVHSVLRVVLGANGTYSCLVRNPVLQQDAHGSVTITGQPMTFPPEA
# Test Summary: SPR, Carterra LSA; antibody captured on anti-human Fc lawn, 4Ig human B7-H3 as analyte
Some binders, each annotated with its measured koff.
Dear colleague, please return just the value in s⁻¹, with no unit written.

L4H1 (antibody, human IgG1, kappa, V domains shown, Humanized IgG1, HEK293; chains tied by the L/H names; also called YB8 L4 + YB8 H1) VH: QVQLVQSGAEVKKPGASVKVSCKASGYTFTNYDINWVRQATGQGLEWIGWIFPGDGSTQYNEKFQGRVTLTTNTSISTAYMELSSLRSEDTAVYYCARQTTATWFAYWGQGTLVTVSS VL: EIVMTQSPDFQSVTPKEKVTLTCRASQSISDYLHWYQQKPDQSPKLLIKYASQSISGIPSRFSGSGSGTDFTLTINSVEAEDAGVYYCQNGHSFPLTFGQGTKLEIKR | 0.00055
L3H1 (antibody, human IgG1, kappa, V domains shown, Humanized IgG1, HEK293; chains tied by the L/H names; also called YB8 L3 + YB8 H1) VH: QVQLVQSGAEVKKPGASVKVSCKASGYTFTNYDINWVRQATGQGLEWIGWIFPGDGSTQYNEKFQGRVTLTTNTSISTAYMELSSLRSEDTAVYYCARQTTATWFAYWGQGTLVTVSS VL: EIVMTQSPDFQSVTPKEKVTLTCRASQSISDYLHWYQQKPDQSPKLLIKYASQSISGVPSRFSGSGSGSDFTLTINSLEAEDAGVYYCQNGHSFPLTFGQGTKLEIKR | 0.00034

Please turn your attention to the following entry.
Tell me koff reported for L3H2 (antibody, human IgG1, kappa, V domains shown, Humanized IgG1, HEK293; chains tied by the L/H names; also called YB8 L3 + YB8 H2) VH: QVQLQQSGAEVKKPGASVKVSCKASGYTFTNYDINWVRQATGQGLEWIGWIFPGDGSTQYNEKFKGRATLTRNTSISTAYMELSSLRSEDTAVYYCARQTTATWFAYWGQGTLVTVSS VL: EIVMTQSPDFQSVTPKEKVTLTCRASQSISDYLHWYQQKPDQSPKLLIKYASQSISGVPSRFSGSGSGSDFTLTINSLEAEDAGVYYCQNGHSFPLTFGQGTKLEIKR 0.00035
